Here, each record is paired with measured drug sensitivity score data.
test system: HS-PSS; assay: drug sensitivity score (DSS, CellTox-Green cytotoxicity, 72 h) (DSS (dimensionless)); higher = more cytotoxic; extreme values may be limits of the assay
Just the number, please, no unit after it.

>  <compound>
CNNCc1ccc(C(=O)NC(C)C)cc1 [Procarbazine] (max concentration tested 10000 nM)

>  <target.desc>
HS-PSS

>  <numeric.result>
0

$$$$

Consider the additional compound presented here.
Q) Supply reported drug sensitivity score belonging to this compound: CNC(=O)c1cc(Oc2ccc(NC(=O)Nc3cc(C(C)(C)C)nn3-c3ccc4ncccc4c3)c(F)c2)ccn1 [Rebastinib] (max concentration tested 1000 nM)
A) 0

Where do these numbers come from? They come from the supplement of paper PMC5579334.
